Below, each of the molecules is paired with its reported IC50 value.
tested on: MV4;11 cells; assay: Cell viability assay (CellTiter-Glo) in MV4;11 cells, alone or with gilteritinib; assay type: cell-based; conditions: Homo sapiens, 72 h; MV4;11 cells, compound alone (without gilteritinib), three days, CellTiter-Glo; read-out: MV4; 11 IC50

Study these solved cases before continuing.
O=C1CCC(N2C(=O)c3ccc(NCCNC4CC(n5cc(-c6cnc7ccccc7n6)cn5)C4)cc3C2=O)C(=O)N1 (centres unmarked) [GS-373] | > 1000 nM
O=C1CCC(N2C(=O)c3ccc(NCCCCCCn4cc(-c5nc6ccccc6nc5C(F)F)cn4)cc3C2=O)C(=O)N1 (centres unmarked) [GS-547] | 100 to 1000 nM
O=C1CCC(N2C(=O)c3ccc(NCCCc4cccc(N5CCC(c6ccccc6)CC5)c4)cc3C2=O)C(=O)N1 (centres unmarked) [GS-504] | 100 to 1000 nM

Data request: Fetch value of IC50 on MV4;11 cells for O=C1CCC(N2C(=O)c3ccc(NCCNc4cccc(N5CCC(n6cc(-c7cnc8cccc(Br)c8n7)cn6)CC5)c4)cc3C2=O)C(=O)N1 (centres unmarked) [GS-362] .
Data returned: < 10 nM

Data request: Fetch value of IC50 on MV4;11 cells for O=C1CCC(N2C(=O)c3ccc(NCCCCC(F)(F)Cn4cc(-c5cnc6ccccc6n5)cn4)cc3C2=O)C(=O)N1 (centres unmarked) [GS-551] .
Data returned: > 1000 nM

Data request: Fetch value of IC50 on MV4;11 cells for O=C1CCC(N2C(=O)c3ccc(NCCCc4cc(F)cc(N5CCC(c6ccccc6)CC5)c4)cc3C2=O)C(=O)N1 (centres unmarked) [GS-505] .
Data returned: 10 to 100 nM

Data request: Fetch value of IC50 on MV4;11 cells for O=C1CCC(N2Cc3cc(OCCCCCC(=O)N4CCN(c5ccccc5)CC4)ccc3C2=O)C(=O)N1 (centres unmarked) [GS-329] .
Data returned: > 1000 nM

Data provenance is patent US20240050428A1.
